test-system: ACE2 (human, UniProt Q9BYF1 18-740)
Sequence (Q9BYF1 18-740 limits assumed): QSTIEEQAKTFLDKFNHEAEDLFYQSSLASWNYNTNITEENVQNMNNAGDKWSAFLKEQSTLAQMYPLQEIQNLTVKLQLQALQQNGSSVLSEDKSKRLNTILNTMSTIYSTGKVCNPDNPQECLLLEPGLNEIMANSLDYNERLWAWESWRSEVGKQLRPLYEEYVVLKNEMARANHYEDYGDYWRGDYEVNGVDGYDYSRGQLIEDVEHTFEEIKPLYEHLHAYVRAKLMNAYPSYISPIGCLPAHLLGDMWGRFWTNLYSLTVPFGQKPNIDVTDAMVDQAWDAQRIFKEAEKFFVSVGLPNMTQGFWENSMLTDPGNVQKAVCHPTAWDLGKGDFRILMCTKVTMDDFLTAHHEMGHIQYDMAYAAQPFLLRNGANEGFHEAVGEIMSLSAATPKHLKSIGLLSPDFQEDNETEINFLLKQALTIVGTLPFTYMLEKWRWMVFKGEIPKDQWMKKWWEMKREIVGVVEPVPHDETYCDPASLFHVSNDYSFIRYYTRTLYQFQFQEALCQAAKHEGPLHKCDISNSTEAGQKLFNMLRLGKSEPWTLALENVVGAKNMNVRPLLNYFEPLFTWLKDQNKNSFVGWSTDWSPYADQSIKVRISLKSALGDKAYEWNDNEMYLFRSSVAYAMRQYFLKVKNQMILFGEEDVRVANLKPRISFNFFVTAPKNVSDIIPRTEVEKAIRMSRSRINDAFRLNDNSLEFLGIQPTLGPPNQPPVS
experimental-endpoint: koff (s⁻¹)
Numbers only; they are read as s⁻¹.

Check out these entries, answers already filled in.
# binder, quantitative-readout
data = [
    ("ACE2 variant antibody 4-75 (VHH) VHH: EVQLVESGGGLVQPGGSLRLSCAASGRTFGDDTMGWFRQAPGKEREFVAAINWTGGYTPYADSVKGRFTISADNSKNTAYLQMNSLKPEDTAVYYCATDPPLFWGQGTLVTVSS", 0.00478),
    ("ACE2 variant antibody 4-52 (VHH) VHH: EVQLVESGGGLVQPGGSLRLSCAASGRSFSNSVMGWFRQAPGKEREFVARITWNGGSTYYADSVKGRFTISADNSKNTAYLQMNSLKPEDTAVYYCATTENPNPRWGQGTLVTVSS", 0.00149),
    ("ACE2 variant antibody 4-76 (VHH) VHH: EVQLVESGGGLVQPGGSLRLSCAASGRTFGDYAMGWFRQAPGKERELVAPINWSGGSTYYADSVKGRFTISADNSKNTAYLQMNSLKPEDTAVYYCATDPPLFWGQGTLVTVSS", 0.00428),
]

API: the following record is the query input.
Inquiry: Entry ACE2 variant antibody 4-61 (VHH) VHH: EVQLVESGGGLVQPGGSLRLSCAASGRTFGDYIMGWFRQAPGKEREIVAAINWSADYTPYADSVKGRFTISADNSKNTAYLQMNSLKPEDTAVYYCATAPPNTGWHFDHWGQGTLVTVSS has what koff?
Reply text: 0.00286
